Molecular target: Luciferin 4-monooxygenase (Photinus pyralis)
Experiment: firefly luciferase enzyme inhibitors, primary screen, biochemical, luminescence, purified enzyme, 2006 set (AID 1141);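 note: cell-free assay with purified firefly luciferase at 100 ng per well in PBS; test concentration not given here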
Conditions: SteadyGlo luminescence, 30 min, higher = more signal, called active from +8 up or from −8 down
Binning of z-score into classes: lower: < -1; middle: ≥ -1 and < 0.3; upper: ≥ 0.3

Req: For this compound, which bin applies? `[N-]=[N+]=NCc1ccccc1[C@H]1OC(c2ccc(OCCCO)cc2)=N[C@@]1(Cc1ccccc1N=[N+]=[N-])C(=O)N1CCOCC1`
Resp: lower

Req: Next entry: `COc1ccc(-c2cc3c(c(CCc4ccccc4)n2)[Si](C(C)C)(C(C)C)O[C@H]3c2ccccc2)cn1`
Resp: middle

Req: Next entry: COC(=O)C1(CC(C)C)C=C2C(=C(C)C(=O)C2C)CN1 (centres undefined)
Resp: upper

Req: Next entry: `COc1c(C)cc(-c2cc3c(c(CCc4ccccc4)n2)[Si](C(C)C)(C(C)C)O[C@H]3c2ccccc2)cc1C`
Resp: middle

Req: Next entry: `CN(C)CCCCCCNC(=O)[C@@H]1C[C@@H]2C(=O)N[C@@H](CCCC[N+](C)(C)C)C(=O)N2[C@@H]1c1cccc(OCCO)c1`
Resp: lower

Req: Next entry: `C=CCOC(=O)[C@@H]1[C@H]2C(=O)O[C@H](c3ccccc3)[C@H](c3ccccc3)N2[C@H](c2ccc(OCCOC(=O)[C@H]3C[C@H]4C(=O)N[C@@H](CCCCN(C)C)C(=O)N4[C@H]3c3cccc(OCCO)c3)cc2)[C@@]12C(=O)Nc1ccccc12`
Resp: upper

Req: Next entry: `CCOC(=O)C[C@H]1[C@H](OC(=O)c2ccc(-c3ccccc3)cc2)[C@@H](NC(=O)C2CCCCC2)c2cc(OCCCO)ccc2N1C(=O)Cc1ccc(OC)cc1`
Resp: upper

Req: Next entry: `C=C[C@H](OC)[C@@H](O)c1ccc(OC)c(O)c1`
Resp: lower

Req: Next entry: O=C1NC(=O)C2C1C=CC(C(O)C(c1ccccc1)c1ccccc1)N2Nc1ccccn1 (centres undefined)
Resp: lower

Req: Next entry: `C=CCOC(=O)[C@H]1[C@@H]2C(=O)O[C@@H](c3ccccc3)[C@@H](c3ccccc3)N2[C@@H](c2ccc(OCCOC(=O)[C@@H]3C[C@@H]4C(=O)N[C@@H](Cc5ccccc5)C(=O)N4[C@@H]3c3ccc(O)cc3)cc2)[C@]12C(=O)Nc1ccc(I)cc12`
Resp: middle

Req: Next entry: `C=C(CCCC)C(=O)CC[C@H](OC(=O)c1ccccc1-c1ccccc1C(=O)O)c1cccc(OCCO)c1`
Resp: middle

Req: Next entry: `Cc1ccc(S(=O)(=O)N2[C@@H](c3ccccc3)C(C(=O)O)=C[C@H]2C(C)(C)C)cc1`
Resp: upper

Req: Next entry: `CC(C)[Si]1(C(C)C)OCc2cc(-c3ccc(-c4ccc(Cl)c(Cl)c4)o3)nc(-c3ccc(Oc4ccccc4)cc3)c21`
Resp: upper

Req: Next entry: CC(C)c1ccc(NN2C(C(O)C3=C[C@H]4C[C@@H](C3)C4(C)C)C=CC3C(=O)N(c4ccccc4)C(=O)C32)cc1 (some centres undefined)
Resp: lower

Values were extracted from PubChem BioAssay.
